# Assayed Target: CD73 on U138 neuroglioma cells (Homo sapiens)
# Construct: U138 neuroglioma cells, which express CD73 on their surface; endogenous in cells; host or cells: U138 neuroglioma cells (ATCC)
# Sequence (P21589 27-549): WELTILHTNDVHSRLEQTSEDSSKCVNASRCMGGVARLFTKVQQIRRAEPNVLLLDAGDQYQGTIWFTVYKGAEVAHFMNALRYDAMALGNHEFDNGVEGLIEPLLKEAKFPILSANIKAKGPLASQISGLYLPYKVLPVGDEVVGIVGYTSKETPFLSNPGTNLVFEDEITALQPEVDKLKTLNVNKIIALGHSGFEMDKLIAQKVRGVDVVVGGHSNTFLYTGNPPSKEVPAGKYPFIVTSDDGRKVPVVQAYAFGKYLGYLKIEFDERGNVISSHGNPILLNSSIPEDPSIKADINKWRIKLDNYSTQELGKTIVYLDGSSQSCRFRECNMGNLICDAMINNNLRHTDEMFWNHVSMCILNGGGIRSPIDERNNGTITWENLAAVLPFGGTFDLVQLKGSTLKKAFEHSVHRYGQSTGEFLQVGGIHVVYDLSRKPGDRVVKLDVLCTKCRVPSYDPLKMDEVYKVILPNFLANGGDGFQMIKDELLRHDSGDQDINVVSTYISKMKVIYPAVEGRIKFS
# Assay Summary: Inhibition of Ecto-5′-Nucleotidase Activity in U138 Neuroglioma Cells (Assay 2)
# Assay type: cell-based
# Measurement Setup: 50 μM CMP, 2 hr at 37° C., malachite green readout, read-out: Assay 2: IC50, inhibition of ecto-5′-nucleotidase activity in U138 neuroglioma cells
Each item that follows carries a reported IC50.

Compound: CCS(=O)(=O)C(OC[C@H]1O[C@@H](n2cnc3c(N)nc(Cl)nc32)[C@H](O)[C@@H]1O)P(=O)(O)O (single isomer, unassigned) [Example 11]
Assayed Target: CD73 on U138 neuroglioma cells (Homo sapiens)
IC50: 100 to 1000 nM

Compound: O=C(O)C(Cc1ccc(F)cc1)(OC[C@H]1O[C@@H](n2cnc3c(NC4CCCC4)nc(Cl)nc32)[C@H](O)[C@@H]1O)C(=O)O [Example 97]
Assayed Target: CD73 on U138 neuroglioma cells (Homo sapiens)
IC50: 100 to 1000 nM

Compound: CCOC(=O)[C@H](OC[C@H]1O[C@@H](n2cnc3c(N)nc(-c4ncco4)nc32)[C@H](O)[C@@H]1O)P(=O)(O)O (single isomer, unassigned) [Example 49]
Assayed Target: CD73 on U138 neuroglioma cells (Homo sapiens)
IC50: 100 to 1000 nM

Compound: CCOC(=O)[C@@H](OC[C@H]1O[C@@H](n2cnc3c(C)nc(Cl)nc32)[C@H](O)[C@@H]1O)P(=O)(O)O (single isomer, unassigned) [Example 28a]
Assayed Target: CD73 on U138 neuroglioma cells (Homo sapiens)
IC50: > 1000 nM

Compound: Nc1nc(F)nc2c1ncn2[C@@H]1O[C@H](CO[C@@H](C(=O)O)P(=O)(O)O)[C@@H](O)[C@H]1O [Example 53]
Assayed Target: CD73 on U138 neuroglioma cells (Homo sapiens)
IC50: 100 to 1000 nM

Compound: CCOC(=O)[C@H](OC[C@H]1O[C@@H](n2cnc3c(NC)nc(Cl)nc32)[C@H](O)[C@@H]1O)P(=O)(O)O (single isomer, unassigned) [Example 23]
Assayed Target: CD73 on U138 neuroglioma cells (Homo sapiens)
IC50: < 100 nM

Compound: COc1nc(OC)c2ncn([C@@H]3O[C@H](COC(C(=O)O)P(=O)(O)O)[C@@H](O)[C@H]3O)c2n1 (some centres unmarked) [Example 33a]
Assayed Target: CD73 on U138 neuroglioma cells (Homo sapiens)
IC50: > 1000 nM

Compound: O=C(O)C(OC[C@H]1O[C@@H](n2cnc3c(N[C@@H]4CCOC4)nc(Cl)nc32)[C@H](O)[C@@H]1O)C(=O)O [Example 69]
Assayed Target: CD73 on U138 neuroglioma cells (Homo sapiens)
IC50: > 1000 nM

Compound: CCOC(=O)[C@H](OC[C@H]1C[C@@H](n2cnc3cccc(Cl)c3c2=O)[C@H](O)[C@@H]1O)P(=O)(O)O (single isomer, unassigned) [Example 70]
Assayed Target: CD73 on U138 neuroglioma cells (Homo sapiens)
IC50: > 1000 nM

Compound: CCOC(=O)[C@@H](OC[C@H]1O[C@@H](n2cnc3c(N)nc(F)nc32)[C@H](O)[C@@H]1O)P(=O)(O)O (single isomer, unassigned) [Example 52]
Assayed Target: CD73 on U138 neuroglioma cells (Homo sapiens)
IC50: 100 to 1000 nM

Compound: CCS(=O)(=O)C(OC[C@H]1O[C@@H](n2cnc3c(N)nc(Cl)nc32)[C@H](O)[C@@H]1O)P(=O)(O)O (single isomer, unassigned) [Example 11a]
Assayed Target: CD73 on U138 neuroglioma cells (Homo sapiens)
IC50: > 1000 nM

Compound: CCOC(=O)[C@H](OC[C@H]1O[C@@H](n2cnc3c(N)nc(CC(C)C)nc32)[C@H](O)[C@@H]1O)P(=O)(O)O (single isomer, unassigned) [Example 46]
Assayed Target: CD73 on U138 neuroglioma cells (Homo sapiens)
IC50: 100 to 1000 nM

Compound: CCOC(=O)C(OC[C@H]1C[C@@H](n2nnc3c(N)nc(Br)nc32)[C@H](O)[C@@H]1O)P(=O)(O)O (single isomer, unassigned) [Example 77a]
Assayed Target: CD73 on U138 neuroglioma cells (Homo sapiens)
IC50: 100 to 1000 nM

Compound: CNc1nc(Cl)nc2c1ncn2[C@@H]1O[C@H](COC(C)(C(=O)O)C(=O)O)[C@@H](O)[C@H]1O [Example 2]
Assayed Target: CD73 on U138 neuroglioma cells (Homo sapiens)
IC50: 100 to 1000 nM

Compound: CCOC(=O)[C@H](OC[C@H]1O[C@@H](n2cnc3c(N)nc(-c4cc(F)cc(F)c4)nc32)[C@H](O)[C@@H]1O)P(=O)(O)O (single isomer, unassigned) [Example 41]
Assayed Target: CD73 on U138 neuroglioma cells (Homo sapiens)
IC50: > 1000 nM

Compound: CCNC(=O)[C@H](OC[C@H]1O[C@@H](n2cnc3c(N)nc(Cl)nc32)[C@H](O)[C@@H]1O)P(=O)(O)O (single isomer, unassigned) [Example 18]
Assayed Target: CD73 on U138 neuroglioma cells (Homo sapiens)
IC50: 100 to 1000 nM

Compound: CCOC(=O)[C@@H](OC[C@H]1O[C@@H](n2cnc3c(N)nc(C#N)nc32)[C@H](O)[C@@H]1O)P(=O)(O)O (single isomer, unassigned) [Example 45a]
Assayed Target: CD73 on U138 neuroglioma cells (Homo sapiens)
IC50: 100 to 1000 nM

Compound: CCOC(=O)[C@@H](OC[C@H]1O[C@@H](n2cnc3c(N)nc(Cl)nc32)[C@H](O)[C@@H]1O)P(=O)(O)O (single isomer, unassigned) [1, isomer 2]
Assayed Target: CD73 on U138 neuroglioma cells (Homo sapiens)
IC50: 100 to 1000 nM

Compound: Nc1nc(Cl)nc2c1ncn2[C@@H]1O[C@H](COC(Cc2cc(F)cc(F)c2)(C(=O)O)C(=O)O)[C@@H](O)[C@H]1O [Example 96]
Assayed Target: CD73 on U138 neuroglioma cells (Homo sapiens)
IC50: < 100 nM

Compound: Nc1nc(F)nc2c1ncn2[C@@H]1O[C@H](CO[C@H](C(=O)O)P(=O)(O)O)[C@@H](O)[C@H]1O [Example 53a]
Assayed Target: CD73 on U138 neuroglioma cells (Homo sapiens)
IC50: > 1000 nM

Compound: CCOC(=O)[C@H](OC[C@H]1O[C@@H](n2ccc(=O)n(C)c2=O)[C@H](O)[C@@H]1O)P(=O)(O)O (single isomer, unassigned) [Example 30]
Assayed Target: CD73 on U138 neuroglioma cells (Homo sapiens)
IC50: > 1000 nM

Compound: CCOC(=O)C(OC[C@H]1O[C@@H](n2cnc3ccc(Cl)nc32)[C@H](O)[C@@H]1O)P(=O)(O)O (single isomer, unassigned) [Example 87]
Assayed Target: CD73 on U138 neuroglioma cells (Homo sapiens)
IC50: 100 to 1000 nM

Compound: Nc1nc(Cl)nc2c1ncn2[C@@H]1O[C@H](COC(Cc2ccccc2)(C(=O)O)C(=O)O)[C@@H](O)[C@H]1O [Example 7]
Assayed Target: CD73 on U138 neuroglioma cells (Homo sapiens)
IC50: < 100 nM
